# target_or_system: HLA-A2 molecule (Homo sapiens, UniProt P04439, D140Y/D185E/D98H/E176V/E277Q/G131W/G231S/I119V/I121R/I166T/I218V/L300P/L318F/N151K/N90K/P208A/P217A/Q86G/Q94H/R138H/R169H/T345S)
# Construct: endogenous in cells; host or cells: T2 cell line (TAP1/TAP2-deficient)
# assay_info: T2 binding assay
# conditions: T2 binding assay, Figure 1A
metric_name: HLA-A2 binder class in words

>>> df
           sequence_content  reported_measurement
0  KLMAKALLL [POTE 252–260]  intermediate binders
1  KILEEIESV [POTE 553–561]  intermediate binders

Source of measurements: paper PMC3672105
